# test description: In vivo permeation study: pharmacokinetics and absolute bioavailability of LC in rats
# measurement conditions: male, Sprague-Dawley, rat, plasma, topical or ocular, 750 mg
reported metric: bioavailability (%)
Give bare numbers, in %.

The compound C[N+](C)(C)C[C@H](O)CC(=O)[O-] showed bioavailability equal to 22

----------
# test description: In vivo permeation study: pharmacokinetics and absolute bioavailability of LC in rats
# measurement conditions: male, Sprague-Dawley, rat, plasma, po, 200 mg
reported metric: bioavailability (%)
Answers are plain numbers, in %.

Entry under test: C[N+](C)(C)C[C@H](O)CC(=O)[O-] . Its bioavailability was 8

----------
# test description: In vivo permeation study: pharmacokinetics and absolute bioavailability of LC in rats
# measurement conditions: male, Sprague-Dawley, rat, plasma, topical or ocular, 750 mg
reported metric: Tmax
Hi, when you answer, please include the unit after the number. Thanks!

// C[N+](C)(C)C[C@H](O)CC(=O)[O-] [LC] : Tmax value = 4 h

----------
# test description: In vitro permeation study, Franz-type diffusion cells, rat skin
# Assay type: in vitro ADME
# measurement conditions: rat skin
reported metric: ER (enhancement ratio, FMA permeation rates/passive permeation rates)
Numbers only.

C[N+](C)(C)C[C@H](O)CC(=O)[O-] has a reported ER (enhancement ratio, FMA permeation rates/passive permeation rates) of 16

----------
# test description: In vivo permeation study: pharmacokinetics and absolute bioavailability of LC in rats
# measurement conditions: male, Sprague-Dawley, rat, plasma, topical or ocular, 750 mg, AUC0-∞, FMA delivery 750 mg/rat
reported metric: AUC(0-inf) (µg·h/mL)
Answers are plain numbers, in µg·h/mL.

The compound listed as C[N+](C)(C)C[C@H](O)CC(=O)[O-] shows AUC(0-inf) equal to 3020

----------
# test description: In vivo permeation study: pharmacokinetics and absolute bioavailability of LC in rats
# measurement conditions: male, Sprague-Dawley, rat, plasma, po, 200 mg, AUC0-∞, Oral 200 mg/rat
reported metric: AUC(0-inf) (µg·h/mL)
Numbers only, in µg·h/mL.

Consider C[N+](C)(C)C[C@H](O)CC(=O)[O-] [LC] . Its measured AUC(0-inf) is 309

----------
# test description: In vitro permeation study, Franz-type diffusion cells, human cadaver skin
# Format: in vitro ADME
# measurement conditions: human skin
# Procedure: Samples of full-thickness dermatomed human cadaver skins (≈800 μm) were obtained from the Burns Institute, 304th Clinical Department, The General Hospital of PLA, Trauma Center of Postgraduate Medical College and were free from overt pathology. The skin samples were kept frozen in liquid nitrogen and used within 3 months. […] Skin samples were treated using FMA delivery system. […] The samples were analyzed by HPLC/UV. The results were expressed as the mean±S.D. (n=3-4 independent samples). […]
reported metric: ER (enhancement ratio, FMA permeation rates/passive permeation rates)
Numbers only.

Note to self: ER (enhancement ratio, FMA permeation rates/passive permeation rates) recorded for C[N+](C)(C)C[C@H](O)CC(=O)[O-] was 59

----------
# test description: In vivo permeation study: pharmacokinetics and absolute bioavailability of LC in rats
# measurement conditions: male, Sprague-Dawley, rat, plasma, po, 200 mg
reported metric: Cmax (ng/mL)
Give bare numbers, in ng/mL.

Quick note, Cmax for C[N+](C)(C)C[C@H](O)CC(=O)[O-] landed at 40000

----------
# test description: In vivo permeation study: pharmacokinetics and absolute bioavailability of LC in rats
# measurement conditions: male, Sprague-Dawley, rat, plasma, po, 200 mg
reported metric: Tmax
Lab note: write values as number then unit, every time.

The compound listed as C[N+](C)(C)C[C@H](O)CC(=O)[O-] shows Tmax equal to 2 h
